From: patent US6136810A

Overview of reported pIC50 across a group of compounds:
ASSAY_TARGET: type IV phosphodiesterase
EXPERIMENT: Type IV phosphodiesterase inhibition activity measuring test (in vitro)
Assay type: biochemical
REPORTED_CONDITIONS: Table 1; human granulocyte type IV PDE, 1 μM cAMP, 30° C.; read-out: Type IV PDE inhibition activity IC50
Method: The following assay was used for the evaluation of the capability of the compounds of the present invention to inhibit type IV phosphodiesterase. 1) Physiological saline (200 ml) supplemented with dextran (3%) was added to 500 ml of heparinized peripheral blood of a healthy person and incubated at 37° C. for 40 minutes to effect precipitation of erythrocytes. […]
FYI, pIC50 means -log10 of a concentration in mol per litre.

Return reported pIC50. Input compound: CCc1ccc2c(C3CCCCC3)nc(=O)n(CC)c2n1
8.83

Give the reported pIC50 for this compound. CCn1c(=O)nc(-c2cccc([N+](=O)[O-])c2)c2ccc(C)nc21
8.32

Provide pIC50 value for the following compound: CCn1c(=O)nc(-c2cccc(Cl)c2)c2ccc(C(C)O)nc21 (centres unmarked)
8.09

Please give the documented pIC50 of CCn1c(=O)nc(-c2cccc(Cl)c2)c2ccc(C(C)SC(C)=O)nc21 (centres unmarked)
8.24

----------
ASSAY_TARGET: type IV phosphodiesterase
EXPERIMENT: Type IV phosphodiesterase inhibition activity measuring test (in vitro)
Format: biochemical
REPORTED_CONDITIONS: Table 1; human granulocyte type IV PDE, 1 μM cAMP, 30° C.; read-out: Type IV PDE inhibition activity IC50
ASSAY_METRIC: pIC50
pIC50 here: minus log base 10 of the concentration, concentration in moles per litre.

Field: example entries. Status: answers known.
COMPOUND | pIC50
CCn1c(=O)nc(-c2cccc(Cl)c2)c2ccc(C=NO)nc21 [Example 36] | 9.03
Cc1cccc(-c2nc(=O)n(CC3CC3)c3nc(C)ccc23)c1 [Example 33] | 8.21
CCn1c(=O)nc(-c2cccc(Cl)c2)c2ccc(C3CC3)nc21 [Example 22] | 8.11

State the measured pIC50 (type IV phosphodiesterase) of CCc1ccc2c(-c3cccc(Cl)c3)nc(=S)n(CC)c2n1 [Example 41]
9.07
